Here the recorded IC50 is given for each entry.
Molecular target: α4β1 integrin (Jurkat cell adhesion to immobilized CS-1 derived peptide CLHPGEILDVPST) (Homo sapiens, UniProt P05556+P13612)
Construct: 100 μl of Jurkat cells (2.5×10^6 cells/ml) in DMEM plus BSA
Sequence (P13612 34-1032): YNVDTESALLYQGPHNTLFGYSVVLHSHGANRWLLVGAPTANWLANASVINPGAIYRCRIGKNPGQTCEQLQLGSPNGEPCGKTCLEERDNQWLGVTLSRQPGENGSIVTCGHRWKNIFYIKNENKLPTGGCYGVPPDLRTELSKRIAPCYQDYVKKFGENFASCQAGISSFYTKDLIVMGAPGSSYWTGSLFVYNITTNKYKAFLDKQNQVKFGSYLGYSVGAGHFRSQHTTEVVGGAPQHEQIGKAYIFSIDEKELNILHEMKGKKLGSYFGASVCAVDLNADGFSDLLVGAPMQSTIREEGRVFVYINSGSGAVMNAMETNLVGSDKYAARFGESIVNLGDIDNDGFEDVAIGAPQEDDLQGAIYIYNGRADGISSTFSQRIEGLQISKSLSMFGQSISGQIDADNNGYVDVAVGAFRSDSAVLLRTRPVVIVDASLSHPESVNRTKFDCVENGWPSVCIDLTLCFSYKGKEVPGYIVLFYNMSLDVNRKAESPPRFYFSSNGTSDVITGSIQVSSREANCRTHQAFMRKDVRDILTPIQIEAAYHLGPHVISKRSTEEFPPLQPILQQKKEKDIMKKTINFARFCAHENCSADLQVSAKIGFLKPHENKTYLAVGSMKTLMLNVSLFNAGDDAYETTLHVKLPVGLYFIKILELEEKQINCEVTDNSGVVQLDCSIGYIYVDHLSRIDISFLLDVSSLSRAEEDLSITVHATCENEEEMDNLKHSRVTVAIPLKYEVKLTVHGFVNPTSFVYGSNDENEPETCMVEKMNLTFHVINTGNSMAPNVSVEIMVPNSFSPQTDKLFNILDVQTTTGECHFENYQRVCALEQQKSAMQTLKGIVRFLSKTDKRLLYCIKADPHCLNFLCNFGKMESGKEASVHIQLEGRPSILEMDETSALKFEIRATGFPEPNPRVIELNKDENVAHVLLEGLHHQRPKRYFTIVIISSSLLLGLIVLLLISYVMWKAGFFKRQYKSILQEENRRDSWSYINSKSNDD
Sequence (P05556 21-798): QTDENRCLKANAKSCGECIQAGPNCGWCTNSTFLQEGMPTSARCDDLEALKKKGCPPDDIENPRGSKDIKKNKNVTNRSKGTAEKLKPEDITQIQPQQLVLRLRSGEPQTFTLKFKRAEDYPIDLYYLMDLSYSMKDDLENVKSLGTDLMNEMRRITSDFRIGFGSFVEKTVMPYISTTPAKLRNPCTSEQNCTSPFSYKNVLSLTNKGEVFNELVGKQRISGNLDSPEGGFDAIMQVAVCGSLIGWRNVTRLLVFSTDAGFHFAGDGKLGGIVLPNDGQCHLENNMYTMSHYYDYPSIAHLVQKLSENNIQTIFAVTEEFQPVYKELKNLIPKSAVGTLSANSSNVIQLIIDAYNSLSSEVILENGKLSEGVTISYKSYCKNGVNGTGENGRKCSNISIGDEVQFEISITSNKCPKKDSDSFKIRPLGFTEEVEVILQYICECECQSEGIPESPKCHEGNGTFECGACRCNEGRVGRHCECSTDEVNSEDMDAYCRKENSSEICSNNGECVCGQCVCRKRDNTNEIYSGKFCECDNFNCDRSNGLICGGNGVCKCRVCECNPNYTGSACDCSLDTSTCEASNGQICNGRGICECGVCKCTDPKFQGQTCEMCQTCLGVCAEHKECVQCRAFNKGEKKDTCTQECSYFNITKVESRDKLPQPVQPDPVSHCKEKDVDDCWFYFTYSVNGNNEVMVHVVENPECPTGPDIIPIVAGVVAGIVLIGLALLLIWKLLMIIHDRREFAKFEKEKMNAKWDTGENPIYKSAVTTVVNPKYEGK
Experiment: Jurkat-CS-1 assay
Settings: Jurkat cells on CS-1 peptide coated plates; read-out: JK/CS-1 (Jurkat CS-1 Assay IC50 value range)
From the text: The CS-1 derived peptide, CLHPGEILDVPST, and the scrambled control peptide, CLHGPIELVSDPT, were synthesized on a Beckman 990 synthesizer using t-Boc methodology. The peptides were immobilized onto microtiter plates using the heterobifunctional crosslinker 3-(2-pyridyldithio)propionic acid N-hydroxysuccinimide ester (SPDP) as reported by Pierschbacher et al., Proc. Natl. Acad. USA, 80:1224-1227 (1983). […]

COC(=O)[C@H](Cc1ccc(OCc2c(Cl)cccc2Cl)cc1)NC(=O)CCC1(C(=O)O)CCC(=O)N1 (stereo partly drawn)	≥ 750 nM
O=C(O)c1cc(C(=O)N2CSC[C@H]2C(=O)N[C@@H](Cc2ccc(NC(=O)c3c(Cl)cccc3Cl)cc2)C(=O)O)n[nH]1	50 to 750 nM
CC(=O)CCC(=O)N1CCCC(C(=O)N[C@@H](Cc2ccc(NC(=O)c3c(Cl)cccc3Cl)cc2)C(=O)O)C1 (stereo partly drawn)	50 to 750 nM
O=C(Nc1ccc(C[C@H](NC(=O)[C@H]2COCN2C(=O)OCc2ccccc2)C(=O)O)cc1)c1c(Cl)cccc1Cl	50 to 750 nM
CCOC(=O)N1CSC[C@@H]1C(=O)N[C@@H](Cc1ccc(NC(=O)CCc2ccccc2)cc1)C(=O)O	50 to 750 nM

Turning to the following compound.
## Task Using known records, supply IC50 for CC(C)(C)OC(=O)N1[C@H](C(=O)N[C@@H](Cc2ccc(NC(=O)c3c(Cl)cccc3Cl)cc2)C(=O)O)CSC1(C)C (relative stereo)
## Result 50 to 750 nM
